Origin of the recorded values: paper PMC2756588

SPOT intensity reference
Molecular target: T1, Boi2, P39969
T1 sequence (P39969 32-116, looked up): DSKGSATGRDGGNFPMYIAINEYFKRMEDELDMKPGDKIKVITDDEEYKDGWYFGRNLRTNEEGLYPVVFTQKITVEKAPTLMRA
Assay: SPOT array
Settings: median of control spots 1161
// keep it numeric: no unit symbol after the value

RKRRTHLRLPLIRSN; 0
SNRRPVPRRPSQPLN; 1
VPPPMQPPPIESSNL; 0
QRIRKIPGIPLMSVG; 0
VPKEPAPAPPPEPDM; 0

Request: Find the recorded SPOT intensity belonging to `RTRRRPPPPPIPSTQ` and report it.
Response: 0

Request: Find the recorded SPOT intensity belonging to `IFLRISINFPLNYPN` and report it.
Response: 3
